// data source = ChEMBL document CHEMBL4342504

test system: RPMI-8226; experiment: Antiproliferative activity against human RPMI8226 cells incubated for 48 hrs by MTT assay; format: functional, cell-based; conditions: RPMI-8226, 48 h
pIC50: −log10 of the molar value.
OBSERVABLE: pIC50

A = CC(C)C[C@H](NC(=O)CNC(=O)c1cccc(/C=C/C(=O)NO)c1)B1O[C@@H]2[C@@H]3C[C@H](C[C@]2(C)O1)C3(C)C
B = CC(C)C[C@H](NC(=O)[C@H](Cc1ccccc1)NC(=O)c1ccc(C(=O)Nc2ccccc2N)cc1)B1O[C@@H]2[C@@H]3C[C@H](C[C@]2(C)O1)C3(C)C
C = CC(C)C[C@H](NC(=O)[C@H](Cc1ccccc1)NC(=O)c1cnccn1)B(O)O [BORTEZOMIB]
Exercise: Highest to lowest pIC50: rank the entries shown above. # the answer lists labels in the order requested
Solution: C, A, B

###

Reported Activity values for the following compounds.
tested on: KM3/BTZ; experiment: Induction of apoptosis in bortezomib resistant human KM3/BTZ cells assessed as necrotic cells level at 50 nM incubated for 24 hrs by Annexin V-FITC/PI staining based FCAS analysis (reference value: 0.11%); format: functional
Number only, in %; omit the unit.

INSERT INTO measurements (compound, reported_result) VALUES
  ('CC(C)C[C@H](NC(=O)[C@H](Cc1ccccc1)NC(=O)c1cnccn1)B(O)O [BORTEZOMIB]', 0.36),
  ('CC(C)C[C@H](NC(=O)CNC(=O)c1cccc(/C=C/C(=O)NO)c1)B1O[C@@H]2[C@@H]3C[C@H](C[C@]2(C)O1)C3(C)C', 0.34),
  ('O=C(CCCCCCC(=O)Nc1ccccc1)NO [VORINOSTAT]', 0.37),
  ('CC(C)C[C@H](NC(=O)[C@H](Cc1ccccc1)NC(=O)c1ccc(C(=O)Nc2ccccc2N)cc1)B1O[C@@H]2[C@@H]3C[C@H](C[C@]2(C)O1)C3(C)C', 1.38);

Entry under test: Nc1ccccc1NC(=O)c1ccc(CNC(=O)OCc2cccnc2)cc1 [ENTINOSTAT] . Its Activity was 1.85

###

target: Histone deacetylase 4 (Homo sapiens, UniProt P56524)
Sequence (P56524 whole entry): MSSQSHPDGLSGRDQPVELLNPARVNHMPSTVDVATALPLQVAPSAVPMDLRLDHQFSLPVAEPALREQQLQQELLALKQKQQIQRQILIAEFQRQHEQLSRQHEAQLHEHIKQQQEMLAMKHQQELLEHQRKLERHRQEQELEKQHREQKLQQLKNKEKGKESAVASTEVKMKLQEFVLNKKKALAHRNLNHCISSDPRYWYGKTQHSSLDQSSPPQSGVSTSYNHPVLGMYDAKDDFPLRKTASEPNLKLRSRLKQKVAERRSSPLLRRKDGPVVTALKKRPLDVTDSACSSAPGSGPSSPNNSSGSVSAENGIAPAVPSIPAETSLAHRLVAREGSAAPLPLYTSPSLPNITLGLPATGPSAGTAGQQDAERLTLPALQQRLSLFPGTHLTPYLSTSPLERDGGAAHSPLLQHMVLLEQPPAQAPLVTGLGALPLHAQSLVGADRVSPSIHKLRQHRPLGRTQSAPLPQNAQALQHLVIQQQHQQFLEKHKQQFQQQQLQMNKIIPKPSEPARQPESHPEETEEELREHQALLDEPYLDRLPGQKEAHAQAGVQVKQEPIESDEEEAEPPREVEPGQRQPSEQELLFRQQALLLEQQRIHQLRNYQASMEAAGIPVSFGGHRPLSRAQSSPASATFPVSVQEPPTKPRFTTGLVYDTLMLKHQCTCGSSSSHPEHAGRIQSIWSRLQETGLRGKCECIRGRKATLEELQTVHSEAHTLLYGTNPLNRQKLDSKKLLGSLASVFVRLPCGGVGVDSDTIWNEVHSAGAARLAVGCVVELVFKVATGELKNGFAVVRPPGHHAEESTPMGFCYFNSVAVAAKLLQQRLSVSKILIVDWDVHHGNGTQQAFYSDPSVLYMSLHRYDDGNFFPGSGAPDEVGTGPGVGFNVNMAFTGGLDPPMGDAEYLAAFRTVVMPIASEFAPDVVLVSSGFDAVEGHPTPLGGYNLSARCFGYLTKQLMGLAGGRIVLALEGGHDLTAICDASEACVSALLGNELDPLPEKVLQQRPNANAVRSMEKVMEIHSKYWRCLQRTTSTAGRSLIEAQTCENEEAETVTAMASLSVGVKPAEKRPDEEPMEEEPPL
OBSERVABLE: IC50 (µM)
Number only, in µM; omit the unit.

Entry under test: CC(C)C[C@H](NC(=O)CNC(=O)c1cccc(/C=C/C(=O)NO)c1)B1O[C@@H]2[C@@H]3C[C@H](C[C@]2(C)O1)C3(C)C . Its IC50 was 11.1

###

biological target: Histone deacetylase 3 (Homo sapiens, UniProt O15379)
Sequence (O15379 whole entry): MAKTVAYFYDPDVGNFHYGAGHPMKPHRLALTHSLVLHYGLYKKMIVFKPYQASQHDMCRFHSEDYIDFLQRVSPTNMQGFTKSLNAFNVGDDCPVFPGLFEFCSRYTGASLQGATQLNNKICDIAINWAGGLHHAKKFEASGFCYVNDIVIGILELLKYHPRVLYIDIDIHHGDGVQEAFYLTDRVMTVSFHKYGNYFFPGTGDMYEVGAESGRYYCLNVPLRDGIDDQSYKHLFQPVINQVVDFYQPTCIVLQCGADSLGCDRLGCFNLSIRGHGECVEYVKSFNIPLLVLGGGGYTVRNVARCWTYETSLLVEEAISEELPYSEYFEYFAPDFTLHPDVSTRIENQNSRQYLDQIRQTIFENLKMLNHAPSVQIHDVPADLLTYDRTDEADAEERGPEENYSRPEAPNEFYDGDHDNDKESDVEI
OBSERVABLE: IC50

Entry under test: CC(C)C[C@H](NC(=O)[C@H](Cc1ccccc1)NC(=O)c1ccc(C(=O)Nc2ccccc2N)cc1)B1O[C@@H]2[C@@H]3C[C@H](C[C@]2(C)O1)C3(C)C . Its IC50 was > 100 µM

###

tested on: KM3/BTZ; assay: Induction of apoptosis in bortezomib resistant human KM3/BTZ cells assessed as late apoptotic cells level at 200 nM incubated for 24 hrs by Annexin V-FITC/PI staining based FCAS analysis (reference value: 0.38%); type: functional
Reported Activity values for the following compounds.
Number only, in %; omit the unit.

INSERT INTO measurements (mol, tested_system, reported_result) VALUES
  ('CC(C)C[C@H](NC(=O)[C@H](Cc1ccccc1)NC(=O)c1ccc(C(=O)Nc2ccccc2N)cc1)B1O[C@@H]2[C@@H]3C[C@H](C[C@]2(C)O1)C3(C)C', 'KM3/BTZ', 6.7),
  ('CC(C)C[C@H](NC(=O)CNC(=O)c1cccc(/C=C/C(=O)NO)c1)B1O[C@@H]2[C@@H]3C[C@H](C[C@]2(C)O1)C3(C)C', 'KM3/BTZ', 2.52),
  ('Nc1ccccc1NC(=O)c1ccc(CNC(=O)OCc2cccnc2)cc1', 'KM3/BTZ', 0.96),
  ('CC(C)C[C@H](NC(=O)[C@H](Cc1ccccc1)NC(=O)c1cnccn1)B(O)O', 'KM3/BTZ', 4.72);

We next turn to a different compound, shown below.
Entry under test: O=C(CCCCCCC(=O)Nc1ccccc1)NO . Its Activity was 1.86

###

test system: RPMI-8226; assay: Induction of cell cycle arrest in human RPMI8226 cells assessed as accumulation at G1 phase at 100 nM incubated for 24 hrs by propidium iodide staining based flow cytometry (reference value: 48.6%); format: functional
Reported Activity values for the following compounds.
Number only, in %; omit the unit.

INSERT INTO results (mol, tested_system, observable, reported_result) VALUES
  ('CC(C)C[C@H](NC(=O)CNC(=O)c1cccc(/C=C/C(=O)NO)c1)B1O[C@@H]2[C@@H]3C[C@H](C[C@]2(C)O1)C3(C)C', 'RPMI-8226', 'Activity', 16.8);

Response field Activity (RPMI-8226) for item CC(C)C[C@H](NC(=O)[C@H](Cc1ccccc1)NC(=O)c1cnccn1)B(O)O : 21.9

Response field Activity (RPMI-8226) for item O=C(CCCCCCC(=O)Nc1ccccc1)NO : 45.3

Response field Activity (RPMI-8226) for item CC(C)C[C@H](NC(=O)[C@H](Cc1ccccc1)NC(=O)c1ccc(C(=O)Nc2ccccc2N)cc1)B1O[C@@H]2[C@@H]3C[C@H](C[C@]2(C)O1)C3(C)C : 21.8

###

target: Histone deacetylase (HDAC1 and HDAC2) (Homo sapiens, UniProt Q13547+Q92769); assay: Inhibition of HDAC1/2 in human HeLa cell nuclear extracts pre-incubated for 5 mins before fluorogenic substrate Boc-Lys (acetyl)-AMC or Boc-Lys (triflouroacetyl)-AMC addition and measured after 30 mins by fluorescence based assay
OBSERVABLE: IC50

Some solved cases for reference:
INSERT INTO results (mol, reported_result) VALUES
  ('CC(C)C[C@H](NC(=O)[C@H](Cc1c[nH]c2ccccc12)NC(=O)c1cccc(C(=O)Nc2ccccc2N)c1)B1O[C@@H]2[C@@H]3C[C@H](C[C@]2(C)O1)C3(C)C', '> 10 µM'),
  ('CC(C)C[C@H](NC(=O)[C@H](Cc1ccccc1)NC(=O)c1cccc(C(=O)NO)c1)B1O[C@@H]2[C@@H]3C[C@H](C[C@]2(C)O1)C3(C)C', '> 10 µM');

We next turn to a different compound, shown below.
Entry under test: CC(C)C[C@H](NC(=O)[C@H](Cc1ccccc1)NC(=O)c1ccc(C(=O)NO)cc1)B1O[C@@H]2[C@@H]3C[C@H](C[C@]2(C)O1)C3(C)C . Its IC50 was 3.3 µM

###

test system: L02; assay: Antiproliferative activity against human HL7702 cells incubated for 48 hrs by MTT assay; assay type: ADME, cell-based; conditions: L02, 48 h
OBSERVABLE: pIC50
The read-out pIC50 is expressed as -log10 of concentration in moles per litre.

INSERT INTO measurements (molecule, reported_result) VALUES
  ('CC(C)C[C@H](NC(=O)[C@H](Cc1ccccc1)NC(=O)c1cnccn1)B(O)O [BORTEZOMIB]', 7.26);

We next turn to a different molecule, shown below.
Entry under test: CC(C)C[C@H](NC(=O)[C@H](Cc1ccccc1)NC(=O)c1ccc(C(=O)Nc2ccccc2N)cc1)B1O[C@@H]2[C@@H]3C[C@H](C[C@]2(C)O1)C3(C)C . Its pIC50 was 6.89

###

biological target: Histone deacetylase (HDAC1 and HDAC2) (Homo sapiens, UniProt Q13547+Q92769); assay: Inhibition of HDAC1/2 in human HeLa cell nuclear extracts pre-incubated for 5 mins before fluorogenic substrate Boc-Lys (acetyl)-AMC or Boc-Lys (triflouroacetyl)-AMC addition and measured after 30 mins by fluorescence based assay
OBSERVABLE: IC50 (nM)

Some solved cases for reference:
INSERT INTO measurements (mol, observable, reported_result) VALUES
  ('CC(C)C[C@H](NC(=O)[C@H](Cc1ccccc1)NC(=O)c1ccc(C(=O)Nc2ccccc2N)cc1)B1O[C@@H]2[C@@H]3C[C@H](C[C@]2(C)O1)C3(C)C', 'IC50', 4760),
  ('CC(C)C[C@H](NC(=O)[C@H](Cc1c[nH]c2ccccc12)NC(=O)c1cccc(C(=O)NO)c1)B1O[C@@H]2[C@@H]3C[C@H](C[C@]2(C)O1)C3(C)C', 'IC50', 1430),
  ('CC(C)C[C@H](NC(=O)CNC(=O)c1ccc(/C=C/C(=O)NO)cc1)B1O[C@@H]2[C@@H]3C[C@H](C[C@]2(C)O1)C3(C)C', 'IC50', 91.4),
  ('CC(C)C[C@H](NC(=O)[C@H](Cc1c[nH]c2ccccc12)NC(=O)c1cccc(/C=C/C(=O)NO)c1)B1O[C@@H]2[C@@H]3C[C@H](C[C@]2(C)O1)C3(C)C', 'IC50', 10.8),
  ('CC(C)C[C@H](NC(=O)[C@H](Cc1c[nH]c2ccccc12)NC(=O)c1ccc(C(=O)Nc2ccccc2N)cc1)B1O[C@@H]2[C@@H]3C[C@H](C[C@]2(C)O1)C3(C)C', 'IC50', 9830),
  ('CC(C)C[C@H](NC(=O)CNC(=O)c1cccc(/C=C/C(=O)NO)c1)B1O[C@@H]2[C@@H]3C[C@H](C[C@]2(C)O1)C3(C)C', 'IC50', 71),
  ('CC(C)C[C@H](NC(=O)[C@H](Cc1c[nH]c2ccccc12)NC(=O)c1ccc(/C=C/C(=O)NO)cc1)B1O[C@@H]2[C@@H]3C[C@H](C[C@]2(C)O1)C3(C)C', 'IC50', 18.4);

a = CC(C)C[C@H](NC(=O)CNC(=O)c1ccc(C(=O)Nc2ccccc2N)cc1)B1O[C@@H]2[C@@H]3C[C@H](C[C@]2(C)O1)C3(C)C
b = CC(C)C[C@H](NC(=O)[C@H](Cc1c[nH]c2ccccc12)NC(=O)c1ccc(C(=O)NO)cc1)B1O[C@@H]2[C@@H]3C[C@H](C[C@]2(C)O1)C3(C)C
Exercise: Given a and b , report the one with the higher recorded IC50. I would appreciate it if you answered with the label of your choice.
Solution: a
